# test-description: Pharmacokinetics alone and in combination, selumetinib + erlotinib arm
# condition-label: human, plasma, oral, AUC(0–12), geometric mean; QD cohorts; dosed alone, selumetinib 50 mg cohort (N = 7); erlotinib 100 mg QD
We begin with a simple list: items and their reported AUC(0-t).
Write the answer as a number in ng·h/mL, unit excluded.

- compound: "C#Cc1cccc(Nc2ncnc3cc(OCCOC)c(OCCOC)cc23)c1 [Erlotinib, reference compound]"
  AUC(0-t), ng·h/mL: 14000

Proceed to the following item.
Data request: Quick check: AUC(0-t) of Cn1cnc2c(F)c(Nc3ccc(Br)cc3Cl)c(C(=O)NOCCO)cc21 [Selumetinib] ?
Data returned: 2130

---

Form field: Cmax (one value per entry).
# test-description: Pharmacokinetics alone and in combination, selumetinib + erlotinib arm
# condition-label: human, plasma, oral, Cmax, geometric mean; QD cohorts; in combination, selumetinib 150 mg (N = 12) + erlotinib 100 mg QD
Quick reminder: number only, in ng/mL, skip the unit.

- molecule: "Cn1cnc2c(F)c(Nc3ccc(Br)cc3Cl)c(C(=O)NOCCO)cc21 [Selumetinib]"
  Cmax / ng/mL: 2810

Turning now to a further molecule:
Data request: Any idea what Cmax was measured for C#Cc1cccc(Nc2ncnc3cc(OCCOC)c(OCCOC)cc23)c1 [Erlotinib, reference compound] ?
Data returned: 2030

---

# test-description: Pharmacokinetics alone and in combination, selumetinib + erlotinib arm
# condition-label: human, plasma, oral, Cmax, geometric mean; QD cohorts; in combination, selumetinib 100 mg (N = 6) + erlotinib 100 mg QD
Cmax by entry:
Respond with the bare value in ng/mL.

- compound: "Cn1cnc2c(F)c(Nc3ccc(Br)cc3Cl)c(C(=O)NOCCO)cc21"
  unit-annotation: "ng/mL"
  meas-value: 2600

Proceeding to the next compound to report its Cmax.
Data request: Recorded Cmax of C#Cc1cccc(Nc2ncnc3cc(OCCOC)c(OCCOC)cc23)c1 [Erlotinib, reference compound] , please.
Data returned: 1430

---

# test-description: Pharmacokinetics alone and in combination, selumetinib + temsirolimus arm
# Format: in vivo, human
# condition-label: human, plasma, iv, geometric mean (% CV); dosed in combination, selumetinib 75 mg BID (N = 5) + temsirolimus 25 mg IV; read-out: AUC(0–8)
Here, each record is paired with measured AUC(0-t) data.
Quick reminder: number only, in ng·h/mL, skip the unit.

Data request: Would you mind telling me what AUC(0-t) value was observed for Cn1cnc2c(F)c(Nc3ccc(Br)cc3Cl)c(C(=O)NOCCO)cc21 ?
Data returned: 2520

Data request: What do you get for CO[C@H]1C[C@@H]2CC[C@@H](C)[C@@](O)(O2)C(=O)C(=O)N2CCCC[C@H]2C(=O)O[C@H]([C@H](C)C[C@@H]2CC[C@@H](OC(=O)C(C)(CO)CO)[C@H](OC)C2)CC(=O)[C@H](C)/C=C(\C)[C@@H](O)[C@@H](OC)C(=O)[C@H](C)C[C@H](C)/C=C/C=C/C=C/1C ?
Data returned: 1540

Data request: Entry to check: CO[C@H]1C[C@@H]2CC[C@@H](C)[C@@](O)(O2)C(=O)C(=O)N2CCCC[C@H]2C(=O)O[C@H]([C@H](C)C[C@@H]2CC[C@@H](O)[C@H](OC)C2)CC(=O)[C@H](C)/C=C(\C)[C@@H](O)[C@@H](OC)C(=O)[C@H](C)C[C@H](C)/C=C/C=C/C=C/1C
Data returned: 292
